FYI, the data here is from patent US20240150298A1.

For each of the molecules below, state its pIC50.
target: K. pneumoniae LpxC (Klebsiella pneumoniae subsp. pneumoniae, UniProt A6T4N9); assay: LpxC Binding Assay (Rapid Fire MS assay); type: biochemical
Sequence (A6T4N9 whole entry): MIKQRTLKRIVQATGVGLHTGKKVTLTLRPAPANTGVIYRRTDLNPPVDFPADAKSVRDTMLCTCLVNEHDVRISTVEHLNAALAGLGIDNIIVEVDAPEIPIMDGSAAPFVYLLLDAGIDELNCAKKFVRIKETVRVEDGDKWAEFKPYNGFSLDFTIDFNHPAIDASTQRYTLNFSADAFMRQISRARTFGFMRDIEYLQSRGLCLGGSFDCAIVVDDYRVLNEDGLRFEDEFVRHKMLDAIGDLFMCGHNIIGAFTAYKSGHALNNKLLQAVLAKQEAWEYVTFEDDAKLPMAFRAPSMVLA
FYI, pIC50 means -log10 of a concentration in mol per litre.

Query pIC50 on K. pneumoniae LpxC (Klebsiella pneumoniae subsp. pneumoniae, UniProt A6T4N9) for C[C@H](O)c1nccn1[C@@H](/C=C/c1ccc(-c2ccc(C3CC(NCCC#N)C3)cc2)cc1)CO (stereo partly drawn) 9.15

Same question for C[C@H](O)c1nccn1[C@@H](/C=C/c1ccc(-c2ccc(OC3CCN(CCO)CC3)cc2)cc1)CO please. 8.20

Same question for C[C@H](O)c1nccn1[C@@H](/C=C/c1ccc(-c2ccc(OC[C@@H](O)CO)cc2)cc1)CO please. 8.96
